# System: VSMC
# ASSAY_COMMENT: Antiproliferative activity against PDGF-BB-induced rat VSMC proliferation at 50 uM after 24 hrs by WST1 (CCK-8) assay
# Format: functional
Active and inactive are the calls of the source. The calls are words filed in the database; no cut-off is given here.
Mark one answer only. Choices: T = active, F = inactive

Check out these entries, answers already filled in.
# COMPOUND, TARGET_SYSTEM, CATEGORY
data = [
    ("C[C@H]1O[C@H](O[C@@H]2[C@@H](O)[C@H](OCCc3ccc(O)c(O)c3)O[C@H](CO[C@H]3O[C@@H](CO)[C@H](O)[C@@H](O)[C@@H]3O)[C@H]2OC(=O)/C=C/c2ccc(O)c(O)c2)[C@@H](O)[C@@H](O)[C@@H]1O", "VSMC", "F"),
    ("C[C@@H]1O[C@@H](O[C@@H]2[C@@H](O)[C@H](OCCc3ccc(O)c(O)c3)O[C@H](CO)[C@H]2OC(=O)/C=C/c2ccc(O)c(O)c2)[C@H](O)[C@H](O)[C@H]1O", "VSMC", "F"),
    ("COc1ccc(-c2cc(=O)c3c(O)cc(O[C@@H]4O[C@H](CO[C@@H]5O[C@@H](C)[C@H](O)[C@@H](O)[C@H]5O)[C@@H](O)[C@H](O)[C@H]4O)cc3o2)cc1 [ACACIIN]", "VSMC", "T"),
]

Exercise: Per the records of this test, what outcome belongs to CO[C@H]1[C@@H]2C=CO[C@@H](O[C@@H]3O[C@H](CO)[C@@H](O)[C@H](O)[C@H]3O)[C@@H]2[C@@]2(CO)O[C@@H]12 [METHYLCATALPOL] ?
Solution: T

###

# Test system: VSMC
# ASSAY_COMMENT: Antiproliferative activity against PDGF-BB-induced rat VSMC proliferation at 50 uM after 24 hrs by WST1 (CCK-8) assay
# Format: functional
The source made the active and inactive calls. The rule behind the calls is not given here.
REPORTED_ENDPOINT: Activity

Answered examples (4):
# MOLECULE, READING
measured = [
    ("C[C@@H]1O[C@@H](OC[C@H]2O[C@@H](OCCc3ccc(O)c(O)c3)[C@H](O)[C@@H](O[C@@H]3O[C@@H](C)[C@H](O)[C@@H](O)[C@H]3O)[C@@H]2OC(=O)/C=C/c2ccc(O)c(O)c2)[C@H](O)[C@H](O)[C@H]1O", "inactive"),
    ("COc1cc(C(=O)O[C@@H]2C[C@](C)(O)[C@H]3[C@H](O[C@@H]4O[C@H](CO)[C@@H](O)[C@H](O)[C@H]4O)OC=C[C@H]32)ccc1O", "Active"),
    ("C[C@@H]1O[C@@H](O[C@@H]2[C@@H](O)[C@H](OCCc3ccc(O)c(O)c3)O[C@H](CO)[C@H]2O)[C@H](O)[C@H](O)[C@H]1O", "inactive"),
    ("OC[C@H]1O[C@@H](OCCc2ccc(O)cc2)[C@H](O)[C@@H](O)[C@@H]1O", "inactive"),
]

Please look at the following molecule next.
Exercise: Under VSMC: Activity value of COc1ccc(/C=C/C(=O)O[C@@H]2[C@@H](OC(C)=O)[C@@H](O)[C@H](O[C@H]3[C@@H]4C=CO[C@@H](O[C@@H]5O[C@H](CO)[C@@H](O)[C@H](O)[C@H]5O)[C@@H]4[C@@]4(CO)O[C@@H]34)O[C@H]2C)cc1 [BUDDLEJOSIDE A4] ?
Solution: Active
